// reported tissue uptake at 24 h for each item listed
Test: Ex vivo biodistribution of 177Lu-labeled ligands in PC-3 tumor-bearing mice
Conditions: mouse, stomach, intravenous, 24 h pi, n = 5; read-out: Stomach uptake
Method: SPECT/CT imaging was conducted using an MI Labs (Houten, The Netherlands) U-SPECT-II/CT scanner with a custom-made ultra-high sensitivity big mouse collimator (2 mm pinhole size) following published procedure. The experiments were obtained in accordance with the same protocol established in the PET/CT imaging and ex vivo biodistributions section. The mice were used for SPECT/CT imaging and ex vivo biodistributions studies once the tumors reached a diameter of 5–8 mm. […]
Express the result in %ID/g but write the number alone.

{"COMPOUND": "CC(C)C[C@H](NC(=O)[C@H](Cc1cnc[nH]1)N(C)C(=O)CNC(=O)[C@@H](NC(=O)[C@H](C)NC(=O)[C@H](Cc1c[nH]c2ccccc12)NC(=O)[C@H](CCC(N)=O)NC(=O)[C@@H](Cc1ccccc1)NC(=O)CN1CCC(NC(=O)CN2CCN(CC(=O)O)CCN(CC(=O)O)CCN(CC(=O)O)CC2)CC1)C(C)(C)C)C(=O)N1CC(F)(F)C[C@H]1C(N)=O [[^177Lu]Lu-LW02060, metal not drawn]", "tissue uptake at 24 h / %ID/g": 0.12}

Moving on to another compound below.
Inquiry: Bench note: what tissue uptake at 24 h did CC(C)C[C@@H](CN1CC(F)(F)C[C@H]1C(N)=O)NC(=O)[C@H](Cc1c[nH]cn1)NC(=O)CN(C)C(=O)[C@@H](NC(=O)[C@H](C)NC(=O)[C@H](Cc1c[nH]c2ccccc12)NC(=O)[C@H](CCC(N)=O)NC(=O)[C@@H](Cc1ccccc1)NC(=O)CN1CCC(NC(=O)CN2CCN(CC(=O)O)CCN(CC(=O)O)CCN(CC(=O)O)CC2)CC1)C(C)C [[^177Lu]Lu-LW02080, metal not drawn] show?
Reply text: 0.07

###

# tissue uptake at 1 h annotations
assay: Ex vivo biodistribution of 68Ga-labeled tracers in PC-3 tumor-bearing mice; settings: mouse, blood, intravenous, 100 ug; 1 h pi, blocked (100 µg blocking agent co-injected); read-out: Blood uptake
Number in %ID/g, nothing else.

{"COMPOUND": "CC(C)C[C@H](NC(=O)[C@H](Cc1cnc[nH]1)N(C)C(=O)CNC(=O)[C@@H](NC(=O)[C@H](C)NC(=O)[C@H](Cc1c[nH]c2ccccc12)NC(=O)[C@H](CCC(N)=O)NC(=O)[C@@H](Cc1ccccc1)NC(=O)CN1CCC(NC(=O)CN2CCN(CC(=O)O)CCN(CC(=O)O)CCN(CC(=O)O)CC2)CC1)C(C)(C)C)C(=O)N1CC(F)(F)C[C@H]1C(N)=O [[^68Ga]Ga-LW02060, metal not drawn]", "tissue uptake at 1 h (%ID/g)": 1.71}

# next compound below
Inquiry: Entry CC(C)C[C@@H](CN1CC(F)(F)C[C@H]1C(N)=O)NC(=O)[C@H](Cc1c[nH]cn1)NC(=O)CN(C)C(=O)[C@@H](NC(=O)[C@H](C)NC(=O)[C@H](Cc1c[nH]c2ccccc12)NC(=O)[C@H](CCC(N)=O)NC(=O)[C@@H](Cc1ccccc1)NC(=O)CN1CCC(NC(=O)CN2CCN(CC(=O)O)CCN(CC(=O)O)CCN(CC(=O)O)CC2)CC1)C(C)C [[^68Ga]Ga-LW02080, metal not drawn] has what tissue uptake at 1 h?
Reply text: 2.02
